Tested on: XIP peptide (Xip251-270)
assay method text: small-molecule binders of XIP peptide, primary screen, biochemical, small-molecule microarray, fluorescence 635/667 nm, 0.5 µg/mL protein (AID 1183)
conditions used: small-molecule microarray binding, fluorescence 635 nm; higher = more signal
readout label: composite z-score
Answer using only a numeral; do not append any unit.

{"columns": ["compound", "composite z-score"],
 "data": [
  ["[N-]=[N+]=NCc1ccccc1C[C@@]1(C(=O)N2CCOCC2)N=C(c2ccc(OCCCO)cc2)O[C@@H]1c1ccccc1", 0.74],
  ["COC(=O)[C@@]1(Cc2ccccc2)[C@H]2c3cc(C(=O)N(C)C)n(Cc4c(CO)[nH]cc(C)c4=O)c3C[C@H]2CN1C(=O)c1ccccc1", 0.3],
  ["COC(=O)Cn1c(C(=O)N(C)C)cc2c1C[C@H]1CN(C(=O)c3ccccc3)[C@@](Cc3ccc(F)cc3)(C(=O)OC)[C@@H]21", -0.196],
  ["CC(CO)N1C(=O)[C@@H]2[C@H]3C(=O)OCC=C[C@H]3OC23C=CCN(CCN2CCOCC2)C(=O)[C@@H]13 (stereo not given in full)", 0.154],
  ["COC(=O)c1nc2oc1CC[C@@H](CO)NC(=O)N(C)Cc1cnnn1C[C@H](Cc1ccccc1)NC2=O", 0.944],
  ["COCCOC(=O)N1C(=O)[C@@]2(c3cc(C#CC4=CCCCC4)ccc31)[C@H](c1ccc(OCCO)cc1)N1[C@H](c3ccccc3)[C@H](c3ccccc3)OC(=O)[C@H]1[C@@H]2C(=O)NC[C@H](O)c1ccccc1", 0.622],
  ["C=C(/C(=C/C[C@H](OC(=O)c1ccncc1)c1ccc(CO)o1)c1cc(C(=O)OC)ccc1OC)C(C)C", 0.554],
  ["CC1CC/C=C\\[C@H]2OC34C=CCN(C(C)C)C(=O)[C@H]3N(CCCCCCO)C(=O)[C@@H]4C2C(=O)O1 (stereo not given in full)", 0.27],
  ["CCCCO[C@H]1C[C@H]2C(I)=C[C@@H]1C(=O)[C@]21CO1", 0.08],
  ["C=CCC(OC(C)=O)[C@@H]1[C@@H](N(Cc2cccc3ccccc23)C(=O)c2cccc3ccccc23)c2cc(OCCCO)ccc2N1C(=O)c1ccc(-c2ccccc2)cc1 (stereo not given in full)", 0.686]
]}

Sample `Cc1ccc(S[C@]2(C(=O)NCC(F)(F)F)CC(=O)N(Cc3ccccc3)[C@@H]2c2ccc(CO)cc2I)cc1` ; composite z-score observed: 0.442

Sample `O=C1N(Cc2ccccc2)c2ccccc2[C@@H]2OC(c3ccc(OCCCO)cc3)=N[C@]12Cc1ccccc1` ; composite z-score observed: 0.862

Sample `COC(=O)[C@@]1(Cc2ccc(OC)cc2)[C@H]2c3cc(C(=O)N(C)C)n(CCO)c3C[C@H]2CN1C(=O)c1ccccc1` ; composite z-score observed: -0.947

Sample `COCCCNC(=O)[C@@]1(Cc2ccccc2CN=[N+]=[N-])N=C(c2ccc(OCCCO)cc2)O[C@H]1c1ccccc1` ; composite z-score observed: 0.789

Sample `CCCNC(=O)[C@@]1(c2ccc([N+](=O)[O-])cc2)CC(=O)N(C2CCCCC2)[C@@H]1c1ccc(CO)cc1` ; composite z-score observed: 0.73

---

target under test: NADPH oxidase 2 (Homo sapiens) (UniProt P04839)
Sequence (P04839 whole entry, looked up): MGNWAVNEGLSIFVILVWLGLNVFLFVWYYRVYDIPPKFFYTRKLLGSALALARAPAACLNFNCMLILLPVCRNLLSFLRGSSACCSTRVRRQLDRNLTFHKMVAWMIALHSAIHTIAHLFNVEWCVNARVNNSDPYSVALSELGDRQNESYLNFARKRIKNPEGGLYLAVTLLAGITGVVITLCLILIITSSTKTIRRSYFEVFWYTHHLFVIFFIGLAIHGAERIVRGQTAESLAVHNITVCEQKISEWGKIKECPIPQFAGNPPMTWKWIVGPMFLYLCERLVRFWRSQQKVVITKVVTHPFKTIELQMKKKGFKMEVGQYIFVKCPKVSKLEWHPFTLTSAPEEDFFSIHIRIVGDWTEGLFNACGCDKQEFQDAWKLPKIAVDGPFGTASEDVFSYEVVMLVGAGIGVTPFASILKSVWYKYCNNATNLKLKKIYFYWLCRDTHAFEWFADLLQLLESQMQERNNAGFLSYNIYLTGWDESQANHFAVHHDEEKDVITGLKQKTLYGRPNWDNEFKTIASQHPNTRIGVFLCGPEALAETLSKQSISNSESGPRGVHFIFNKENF
assay method text: NOX2-dependent H2O2 signal modulators, primary screen, NOX inhibitor project, cell-based, HEK293-NOX2, PMA-stimulated, Amplex Red fluorescence (AID 1159)
conditions used: 45 min, higher = more signal, called active from +8 up or from −8 down
Catalogue of z-score values
Answer using only a numeral; do not append any unit.

{"columns": ["compound", "z-score"],
 "data": [
  ["COc1ccc([Si](C)(C)[C@H]2[C@H](CCn3cc([C@H](O)c4ccccc4)nn3)O[C@@]3(C(=O)N(Cc4ccc(N5C(=O)c6cccc7cccc5c67)cc4)c4ccccc43)[C@@H]2C)cc1", 0.892]
]}

The reported z-score value, NADPH oxidase 2 (Homo sapiens) (UniProt P04839), for `C=CCOC(=O)[C@H]1[C@@H]2C(=O)O[C@@H](c3ccccc3)[C@@H](c3ccccc3)N2[C@@H](c2ccc(OCCOC(=O)[C@@H]3C[C@@H]4C(=O)N[C@@H](CCCCN(C)C)C(=O)N4[C@@H]3c3ccc(O)cc3)cc2)[C@]12C(=O)Nc1ccccc12` reads 2.51

The reported z-score value, NADPH oxidase 2 (Homo sapiens) (UniProt P04839), for O=C1OCC=C[C@H]2OC34C=CCN(c5ccc(Cl)cc5)C(=O)[C@H]3N(CCO)C(=O)[C@@H]4[C@@H]12 (stereo not given in full) reads 1.12

The reported z-score value, NADPH oxidase 2 (Homo sapiens) (UniProt P04839), for O=C1NC(=O)C2C1C=CC(C(O)CCc1ccccc1)N2Nc1ccc(Cl)cc1Cl (stereo not given) reads -0.22

The reported z-score value, NADPH oxidase 2 (Homo sapiens) (UniProt P04839), for `C[N+](C)(C)CCCC[C@@H]1NC(=O)[C@H]2C[C@@H](C(=O)NCCCCCCN)[C@@H](c3ccc(O)cc3)N2C1=O` reads 0.00341

The reported z-score value, NADPH oxidase 2 (Homo sapiens) (UniProt P04839), for `C=CCNC(=O)[C@H]1[C@@H]2C(=O)O[C@@H](c3ccccc3)[C@@H](c3ccccc3)N2[C@@H](c2ccc(O)cc2)[C@]12C(=O)N(C(=O)OCCOC)c1ccccc12` reads 0.974

The reported z-score value, NADPH oxidase 2 (Homo sapiens) (UniProt P04839), for `COc1ccc(-c2cc3c(c(CCc4ccccc4)n2)[Si](C(C)C)(C(C)C)OC3)cn1` reads -0.44

The reported z-score value, NADPH oxidase 2 (Homo sapiens) (UniProt P04839), for `CO[C@H]1O[C@H](CO)[C@@H](OC(=O)Nc2ccccc2-c2ccccc2)[C@H](OC(=O)Nc2ccc3c(c2)OCO3)[C@H]1OC(=O)Nc1ccc2c(c1)OCO2` reads -2.21

The reported z-score value, NADPH oxidase 2 (Homo sapiens) (UniProt P04839), for C=CC1c2cc(O)c(OC)cc2CCN1Cc1cc2c(cc1Br)OCO2 (stereo not given) reads -6.22

The reported z-score value, NADPH oxidase 2 (Homo sapiens) (UniProt P04839), for `COc1ccc(CCNC(=O)[C@@]2(Sc3ccc(C)cc3)CC(=O)N(C3Cc4ccccc4C3)[C@@H]2c2ccc(CO)cc2)cc1` reads -2.19

The reported z-score value, NADPH oxidase 2 (Homo sapiens) (UniProt P04839), for `CN(C)C(=O)[C@@]1(CCS(=O)(=O)c2ccccc2)N=C(c2ccc(OCCCO)cc2)O[C@H]1c1ccccc1` reads 0.441

The reported z-score value, NADPH oxidase 2 (Homo sapiens) (UniProt P04839), for CN(C)c1ccc(C(O)C2C=CC3C(=O)N(c4ccccc4)C(=O)C3N2Nc2ccc([N+](=O)[O-])cc2)cc1 (stereo not given) reads -1.95

The reported z-score value, NADPH oxidase 2 (Homo sapiens) (UniProt P04839), for CN1C(=O)C2C=CC(C(O)c3cccc(O)c3)N(Nc3ccccc3)C2C1=O (stereo not given) reads -2.6

The reported z-score value, NADPH oxidase 2 (Homo sapiens) (UniProt P04839), for `COCCCNC(=O)[C@]1(CCS(=O)(=O)c2ccccc2)N=C(c2ccc(OCCCO)cc2)O[C@@H]1c1ccccc1CN=[N+]=[N-]` reads 0.826

Recorded values, source PubChem BioAssay.
